Entries and their nuclei count
Assay: inhibitors of E-selectin induction by TNFa, primary screen, imaging, HUVEC, immunofluorescence, MLSMR starter and 10KST1 sets (AID 487);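 further: 100% = median nuclei count of all wells on the same plate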
Settings: HUVEC TNFalpha-induced E-selectin immunofluorescence imaging, at 2 µM; measured here: cell number, toxicity
readout type: nuclei count (%)

[[record]]
compound = "O=C(CNC1CCCCCC1)Nc1ccc(S(=O)(=O)NC2CC2)cc1"
readout_type = "nuclei count"
scale_unit = "%"
data_value = 108

[[record]]
compound = "CN(CCc1ccccn1)C(=O)CCNC(=O)Cn1cnc2ccccc2c1=O"
readout_type = "nuclei count"
scale_unit = "%"
data_value = 110

[[record]]
compound = "Nc1cc(-c2ccc(Br)cc2)nn1S(=O)(=O)c1ccccc1"
readout_type = "nuclei count"
scale_unit = "%"
data_value = 109

[[record]]
compound = "Cc1cc(N2C(=O)C(=O)/C(=C(/O)c3ccc(F)cc3)C2c2cccc(Br)c2)no1 (centres undefined)"
readout_type = "nuclei count"
scale_unit = "%"
data_value = 145


* * *

Molecular target: Alpha-2C adrenergic receptor (Homo sapiens) (UniProt P18825)
Sequence (P18825 whole entry, looked up): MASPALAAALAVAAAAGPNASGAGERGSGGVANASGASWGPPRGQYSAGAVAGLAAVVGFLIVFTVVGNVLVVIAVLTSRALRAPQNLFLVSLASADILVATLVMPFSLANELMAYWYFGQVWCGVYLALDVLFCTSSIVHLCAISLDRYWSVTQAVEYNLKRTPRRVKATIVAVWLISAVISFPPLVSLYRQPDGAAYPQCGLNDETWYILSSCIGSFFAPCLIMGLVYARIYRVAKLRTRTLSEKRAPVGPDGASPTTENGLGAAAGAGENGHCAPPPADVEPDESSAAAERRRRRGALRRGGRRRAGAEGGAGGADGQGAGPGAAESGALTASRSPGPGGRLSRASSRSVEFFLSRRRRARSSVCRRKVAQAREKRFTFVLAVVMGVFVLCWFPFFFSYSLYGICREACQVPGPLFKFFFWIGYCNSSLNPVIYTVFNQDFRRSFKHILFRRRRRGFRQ
Experiment: modulators of alpha2C/GIRK thallium flux, primary screen, cell-based, HEK293 alpha2C/GIRK1/2 (AID 624);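 further: slope of fluorescence ratio to pre-addition baseline per second over 15 to 24 s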
Settings: thallium flux BTC fluorescence, at 10 µM, actives lie on both sides
readout type: slope

[[record]]
compound = "Cc1nnc(SCC(=O)N2CC(=O)Nc3ccccc32)n1-c1ccccc1"
readout_type = "slope"
data_value = 0.00543

[[record]]
compound = "CCOC(=O)c1sc2nc(NC(=O)C3CCCCC3)sc2c1C"
readout_type = "slope"
data_value = 0.00612

[[record]]
compound = "C=CCc1cc(OC)ccc1OCC(O)CN1CCN(c2ccc(OC)cc2)CC1 (stereo not drawn)"
readout_type = "slope"
data_value = 0.00605


* * *

Target: Voltage-gated potassium channel subunit beta-2 (Rattus norvegicus) (UniProt P62483)
Sequence (P62483 whole entry, looked up): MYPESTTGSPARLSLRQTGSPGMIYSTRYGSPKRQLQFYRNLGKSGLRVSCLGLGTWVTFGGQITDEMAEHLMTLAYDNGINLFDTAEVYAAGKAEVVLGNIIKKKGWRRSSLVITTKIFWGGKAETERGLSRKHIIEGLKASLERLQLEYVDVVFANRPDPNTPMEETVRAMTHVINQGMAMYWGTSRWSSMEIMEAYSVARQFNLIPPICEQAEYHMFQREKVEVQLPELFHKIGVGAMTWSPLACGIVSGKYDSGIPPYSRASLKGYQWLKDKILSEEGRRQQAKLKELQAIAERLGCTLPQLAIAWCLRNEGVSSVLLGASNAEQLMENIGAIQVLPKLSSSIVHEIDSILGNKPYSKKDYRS
Assay: KvBeta positive modulators, primary screen, biochemical, NADPH fluorescence (AID 623);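 further: fluorescence intensity change per second fitted from 20 to 320 s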
Conditions: Recombinant KvBeta, NADPH fluorescence decrease slope, 10 min; at 10 µM; stronger effect = lower value
Calls of active or inactive are those of the source.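 The calls were made as follows: active = NADPH fluorescence slope more negative than the mean of all samples by about 3 SD, 99.7% confidence; inactive = the rest.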
readout type: NADPH fluorescence slope

[[record]]
compound = "CCCc1nnc(NC(=O)CCC(=O)N2CCN(CCOc3ccc(C)cc3)CC2)s1"
data_value = "6e-06 (inactive)"

[[record]]
compound = "O=C(CN1CCN(c2ncccn2)CC1)Nc1ccccc1-n1cccc1"
data_value = "-6.7e-06 (inactive)"

[[record]]
compound = "O=C(CC(C(=O)N1CCc2ccccc21)n1ccnc1)NCc1cccnc1 (centres undefined)"
data_value = "9.2e-07 (inactive)"

[[record]]
compound = "CC1CCN(CCCNC(=O)c2coc3nc4ccccc4nc23)CC1"
data_value = "-3.5e-06 (inactive)"

[[record]]
compound = "Cc1nc2sc(C(c3cccc(F)c3)N3CCOCC3)c(O)n2n1 (centres undefined)"
data_value = "-9.8e-05 (inactive)"

[[record]]
compound = "CCN(CC)c1ccc(C2Nc3cccc4cccc(c34)N2)c(O)c1"
data_value = "-7.3e-05 (inactive)"

[[record]]
compound = "CCC(=O)Nc1ccc2nc(SCC(=O)N3CCCC3)sc2c1"
data_value = "-2.8e-05 (inactive)"

[[record]]
compound = "COc1ccccc1NC(=O)Nc1nnc(C(C)C)s1"
data_value = "-1.2e-05 (inactive)"

[[record]]
compound = "CCC(NC(=O)NC1=NCCS1)(C(F)(F)F)C(F)(F)F"
data_value = "-7.2e-05 (inactive)"

[[record]]
compound = "Cc1ccccc1-n1c(=O)cc(NCc2ccc3c(c2)OCO3)[nH]c1=O"
data_value = "1.9e-05 (inactive)"

[[record]]
compound = "Cc1ccc(C)c(C(=O)CC2(O)C(=O)N(C)c3ccccc32)c1 (centres undefined)"
data_value = "-5.8e-05 (inactive)"

[[record]]
compound = "COc1ccc(C(=O)OC(C)CN2CCN(C)CC2)cc1OC (centres undefined)"
data_value = "-9.4e-05 (inactive)"

[[record]]
compound = "O=C(CCS(=O)(=O)c1cccc2nsnc12)NCc1ccccc1"
data_value = "3.6e-05 (inactive)"

[[record]]
compound = "CC(NC(=O)NCc1cccnc1)(C(F)(F)F)C(F)(F)F"
data_value = "-4.7e-05 (inactive)"

[[record]]
compound = "Cn1c(=O)c2c(nc(CN3CCN(Cc4ccccc4)CC3)n2Cc2cccc(Cl)c2)n(C)c1=O"
data_value = "-5.1e-05 (inactive)"

[[record]]
compound = "CC(NC(=O)OCc1ccccc1)C(=O)OCN1C(=O)c2ccccc2C1=O (centres undefined)"
data_value = "-4.8e-06 (inactive)"

[[record]]
compound = "CCOc1ccc(OCc2cccc(C(=O)N3CCOCC3)c2)cc1"
data_value = "-6.4e-05 (inactive)"

[[record]]
compound = "CCN(CC)CCCN1C(=O)C(O)=C(C(C)=O)C1c1cccc(OC)c1 (centres undefined)"
data_value = "-4.4e-05 (inactive)"

[[record]]
compound = "CC(C(=O)N(C)C)N(C#N)c1nc(N(C)C)nc(N(C)C)n1 (centres undefined)"
data_value = "-5.1e-05 (inactive)"

[[record]]
compound = "C=CCc1cccc(/C=N/n2cnnc2)c1O"
data_value = "-0.00012 (inactive)"

[[record]]
compound = "O=C(Nc1ccc(N2CCN(Cc3ccccc3Cl)CC2)cc1)c1cccnc1"
data_value = "1.4e-05 (inactive)"

[[record]]
compound = "Cc1ccc2[nH]c3c(c2c1)CN(C(=O)CN1CC(C)OC(C)C1)CC3 (centres undefined)"
data_value = "-0.000107 (inactive)"

[[record]]
compound = "CCCC(C)n1[nH]c(=O)cc1N (centres undefined)"
data_value = "-0.000101 (inactive)"

[[record]]
compound = "CC(C)CN(CC(C)C)C(=O)CS(=O)(=O)Cc1ccccc1"
data_value = "-6.4e-05 (inactive)"

[[record]]
compound = "COCCNc1ncnc2c1cnn2-c1ccc(Cl)cc1"
data_value = "-5.8e-05 (inactive)"

[[record]]
compound = "O=C(NCc1ccccn1)c1ccc(=O)oc1"
data_value = "-4.4e-05 (inactive)"

[[record]]
compound = "CCOC(=O)N1CCC(NC(=O)Cn2ncc3c4ccccc4n(C)c3c2=O)CC1"
data_value = "-2.3e-05 (inactive)"

[[record]]
compound = "COC(=O)CSc1nc(-c2cccs2)ccc1C#N"
data_value = "-4.2e-05 (inactive)"

[[record]]
compound = "CN1CCN(Cc2nc3c(c(=O)[nH]c(=O)n3C)n2CCc2ccccc2)CC1"
data_value = "-1.6e-05 (inactive)"

[[record]]
compound = "COCCSc1ccccc1C(=O)Nc1nncs1"
data_value = "-2.1e-05 (inactive)"

[[record]]
compound = "COC(=O)N1CC(c2ccccc2)CC1=O (centres undefined)"
data_value = "-0.000268 (inactive)"

[[record]]
compound = "C=COC(=O)CSc1snc(SCC(=O)OC)c1C#N"
data_value = "-4.2e-06 (inactive)"

[[record]]
compound = "Cc1ccc2cc(C(c3nnnn3CC3CCCO3)N3CCCC4(CCCCC4)C3)c(=O)[nH]c2c1 (centres undefined)"
data_value = "-3.7e-05 (inactive)"

[[record]]
compound = "CC(=O)Nc1ccc(S(=O)(=O)Nc2nc3ccccc3nc2N2CCCC2)cc1"
data_value = "2.1e-06 (inactive)"

